Listing of recorded CRF1R EC50 by entry.
Molecular target: CRF1R
Assay: cell-based or functional assay
Ends that are not written are not given here.
quantity_measured: CRF1R EC50

INSERT INTO results (binder, quantity_measured, result) VALUES
  ('ZGPPISIDLPFQLLRKMIEIEKQEKEKQQAAANRLLLDTV (C-terminal amide) [SEQ ID NO 15]', 'CRF1R EC50', '85.3 nM'),
  ('IVLSLDVPIGLLQILLEMARAEQLAQQAHSNRKLMEII-NH2 [SEQ ID NO 164]', 'CRF1R EC50', '> 100 nM'),
  ('IVLSLDVPIGLLQEVLEMARAEQLAQQAHSNRKLMEII-NH2 [SEQ ID NO 165]', 'CRF1R EC50', '> 100 nM'),
  ('SQEPPISLDLPTQLLREVLEMTKADQLAQQAHSNRKLLDIA-NH2 [SEQ ID NO 105]', 'CRF1R EC50', '100 nM'),
  ('ZGPPISIDLPTQLLRKMIEIEKQEKEKQQAANNRLLLDTI (C-terminal amide) [SEQ ID NO 72]', 'CRF1R EC50', '> 100 nM'),
  ('IVLSLDVPIGLLQILLEQERQEAAREQATTNARILARV-NH2 [SEQ ID NO 118]', 'CRF1R EC50', '> 100 nM');
